Conditions: buffer; pH 7.4; 200.0 µM
Kindly supply the reported solubility kinetic values for the records listed here.

Completed entries (count: 2):
COc1cccc(C(=O)N2CCn3c2nc2ccccc23)c1 = > 44 µg/mL
COCCNC(=O)c1ccc2c(c1)C(=O)c1ccccc1-2 = > 42.2 µg/mL

Batch of 6 molecules: report solubility kinetic for each.
1. N#CCCN(C(=O)CSc1n[nH]c(=O)[nH]c1=O)c1ccccc1
2. Cc1cccc(Cn2nc(C(C)(C)C)cc2C(=O)N2CCOCC2)c1
3. O=c1[nH]c(/C=C/c2ccccc2Cl)c([N+](=O)[O-])c(=O)[nH]1
4. C#CCn1ccc(O)c(Cc2c(F)cccc2Cl)c1=O
5. COc1ccc(S(=O)(=O)NC2CCc3ccccc32)cc1OC (configuration not stated)
6. O=C(NCc1ccco1)c1cc(S(=O)(=O)NC2CC2)ccc1Br

Output:
1: > 49.7 µg/mL; 2: > 51.2 µg/mL; 3: > 44.1 µg/mL; 4: > 43.8 µg/mL; 5: > 50 µg/mL; 6: > 59.9 µg/mL
